targetOrTestSystem: h-mT1R2-481/T1R3mosaicA (UniProt Q8TE23+Q925D8, A12W/A31M/A537S/A558R/A564V/A568V/A570T/A588V/A645S/A649T/A658V/A698V/A702T/A782V/A793V/A807V/C582S/C678S/E16H/E530V/E534N/E542M/E548N/E725V/F14L/F29L/F525Y/F541I/F612A/F622V/F665L/F695L/G696N/G701T/H484Y/H528R/H728R/I36V/I481V/I486P/I490V/I510L/I518V/I595M/I60P/I617V/I643V/I645L/I692L/I695G/I706V/I740A/I803L/K30R/K504M/K555R/K565R/K626T/K714N/K818R/K827G/L17P/L521P/L560F/L571I/L578I/L610P/L631F/L636F/L639V/L684P/L688V/L702I/L734M/L735F/L800F/L823M/L825Q/M19T/M492I/M616G/M644L/M682V/M690V/M744T/M748V/N52R/N540G/N541S/N547G/N58S/N63T/N675D/N721H/P545F/P561R/P564S/P61V/P638T/P824S/Q32K/Q536L/Q53S/Q546K/Q550E/Q555R/Q56R/Q611L/Q676H/Q757R/Q795R/Q831P/R498S/R632Q/R667S/S22P/S45E/S501P/S547N/S550A/S576L/S595F/S610P/S628F/S635P/S637R/S663R/S670G/S679G/S681F/S703N/S717H/S727G/S784D/S804G/T46A/T50G/T529S/T542A/T549I/T609V/T629S/T642S/T663I/T694M/T705I/T706G/T716I/T813A/V508I/V512P/V557A/V573A/V584A/V585L/V613L/V617M/V673M/V687A/V691A/V694A/V718L/V718M/V723A/V729T/V738A/V741L/V774I/V791M/V805L/V812A/V821L/W599R/W676R/W824R/Y533F/Y615F/Y671F/Y680C/Y769S/Y783H/Y794L)
Sequence (Q8TE23 with tags, fused parts or gaps with the stated changes limits assumed): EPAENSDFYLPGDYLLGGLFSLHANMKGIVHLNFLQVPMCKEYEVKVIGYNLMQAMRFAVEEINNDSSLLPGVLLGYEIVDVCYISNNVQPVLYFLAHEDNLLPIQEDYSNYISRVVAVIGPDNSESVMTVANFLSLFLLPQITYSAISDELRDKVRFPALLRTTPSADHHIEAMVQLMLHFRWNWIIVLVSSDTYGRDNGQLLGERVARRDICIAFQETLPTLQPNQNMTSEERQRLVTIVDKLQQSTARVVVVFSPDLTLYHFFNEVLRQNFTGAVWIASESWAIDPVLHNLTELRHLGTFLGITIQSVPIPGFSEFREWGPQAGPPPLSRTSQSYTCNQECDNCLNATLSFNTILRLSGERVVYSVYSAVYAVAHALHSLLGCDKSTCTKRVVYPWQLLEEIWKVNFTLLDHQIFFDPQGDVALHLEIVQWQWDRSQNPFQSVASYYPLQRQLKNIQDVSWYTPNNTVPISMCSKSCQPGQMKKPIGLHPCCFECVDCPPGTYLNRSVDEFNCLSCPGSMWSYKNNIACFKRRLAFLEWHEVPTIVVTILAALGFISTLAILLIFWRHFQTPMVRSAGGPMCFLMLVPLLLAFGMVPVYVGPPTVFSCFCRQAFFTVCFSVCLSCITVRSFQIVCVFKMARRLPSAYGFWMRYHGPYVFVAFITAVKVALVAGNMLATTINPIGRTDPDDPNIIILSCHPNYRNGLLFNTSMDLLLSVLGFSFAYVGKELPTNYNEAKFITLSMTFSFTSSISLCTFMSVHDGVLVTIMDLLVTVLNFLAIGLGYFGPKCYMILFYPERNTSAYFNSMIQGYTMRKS
Sequence (Q925D8 with tags, fused parts or gaps with the stated changes limits assumed): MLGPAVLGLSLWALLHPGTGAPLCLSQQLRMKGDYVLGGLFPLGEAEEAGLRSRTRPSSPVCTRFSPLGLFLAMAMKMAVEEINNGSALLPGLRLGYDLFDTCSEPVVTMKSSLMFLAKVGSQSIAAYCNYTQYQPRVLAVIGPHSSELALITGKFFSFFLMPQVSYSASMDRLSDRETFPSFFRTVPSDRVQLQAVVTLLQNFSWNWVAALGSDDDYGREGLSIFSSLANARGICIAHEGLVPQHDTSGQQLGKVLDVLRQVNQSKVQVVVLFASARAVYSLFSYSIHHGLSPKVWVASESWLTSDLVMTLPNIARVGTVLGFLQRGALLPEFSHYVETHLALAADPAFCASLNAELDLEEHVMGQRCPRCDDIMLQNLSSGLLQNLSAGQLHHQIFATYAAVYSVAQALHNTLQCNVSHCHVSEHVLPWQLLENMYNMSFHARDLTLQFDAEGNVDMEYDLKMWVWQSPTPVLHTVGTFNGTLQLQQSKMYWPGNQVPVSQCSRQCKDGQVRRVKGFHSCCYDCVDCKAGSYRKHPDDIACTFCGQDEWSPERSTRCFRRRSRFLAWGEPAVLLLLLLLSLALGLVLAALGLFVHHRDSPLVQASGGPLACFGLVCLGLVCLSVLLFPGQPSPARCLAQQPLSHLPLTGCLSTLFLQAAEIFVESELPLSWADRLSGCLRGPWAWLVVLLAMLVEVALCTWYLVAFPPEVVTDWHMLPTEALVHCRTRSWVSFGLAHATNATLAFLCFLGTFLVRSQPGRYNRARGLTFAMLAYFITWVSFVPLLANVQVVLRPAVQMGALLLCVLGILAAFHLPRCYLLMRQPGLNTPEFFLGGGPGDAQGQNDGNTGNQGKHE
details: Table 6; genes h-mT481/T1Rm3A (h-mT1R2-481, T1R3mA); HEK293E cells
Residues, ends and D or L forms follow the SMILES beside them.
Could you label it condition met if measured S/N is 7 or higher, and condition not met otherwise?

Completed entries (count: 3):
>  <compound>
COC(=O)[C@H](Cc1ccccc1)NC(=O)[C@H](CC(=O)O)NCCCc1ccc(OC)c(O)c1 [Advantame, advantame]

>  <assignedLabel>
condition met

$$$$
>  <compound>
C[C@H](NC(=Nc1ccc(C#N)cc1)NCC(=O)O)c1ccccc1 [SC-45647]

>  <assignedLabel>
condition met

$$$$
>  <compound>
COC(=O)[C@H](Cc1ccccc1)NC(=O)[C@H](CC(=O)O)NCCC(C)(C)C [Neotame, neotame]

>  <assignedLabel>
condition met

$$$$

Determine whether this compound has S/N no lower than 7: OC[C@H]1O[C@@](CO)(O[C@H]2O[C@H](CO)[C@@H](O)[C@H](O)[C@H]2O)[C@@H](O)[C@@H]1O [Sucrose, sucrose]
condition not met

Please tell me: is the compound COc1ccc(CCC(=O)c2c(O)cc(O[C@@H]3O[C@H](CO)[C@@H](O)[C@H](O)[C@H]3O[C@@H]3O[C@@H](C)[C@H](O)[C@@H](O)[C@H]3O)cc2O)cc1O [NHDC, neohesperidin dihydrochalcone] at or over 7 in terms of S/N?
condition not met

Reported S/N reaches at least 7 for COC(=O)[C@H](Cc1ccccc1)NC(=O)[C@@H](N)CC(=O)O [Aspartame, aspartame] (HELM PEPTIDE1{D.F.[CO[*:1]]}$$$$V2.0) ?
condition met

Evaluate CC1=CC(=O)NS(=O)(=O)O1 [Acesulfame K, acesulfame potassium] : S/N at minimum 7?
condition not met
